test system: HUVEC with or without PBMC (3C, 4H, SAG and LPS systems); assay: BioMAP inflammation model systems (3C, 4H, SAG, LPS), cell-based ELISA profiling; parameters: species or system human; details: 4 systems (3C, 4H, SAG, LPS); concentration of 5 micromolar; 24 h stimulation
Quantity name: Activity

Take a look at these entries with their results.
[[record]]
structure_smiles_string = "CC(C)(C)n1nc(CC2CCCC2)c2c(N)ncnc21"
target_under_test = "HUVEC with or without PBMC (3C, 4H, SAG and LPS systems)"
quantity_name = "Activity"
result = "+"

[[record]]
structure_smiles_string = "Cn1nc(Cc2ccccc2Br)c2c(N)ncnc21"
target_under_test = "HUVEC with or without PBMC (3C, 4H, SAG and LPS systems)"
quantity_name = "Activity"
result = "+"

[[record]]
structure_smiles_string = "CC(C)(C)n1nc(-c2ccc3c4c(cccc24)CC3)c2c(N)ncnc21"
target_under_test = "HUVEC with or without PBMC (3C, 4H, SAG and LPS systems)"
quantity_name = "Activity"
result = "active"

[[record]]
structure_smiles_string = "Cn1nc(-c2ccc3ccccc3c2)c2c(N)ncnc21"
target_under_test = "HUVEC with or without PBMC (3C, 4H, SAG and LPS systems)"
quantity_name = "Activity"
result = "active"

[[record]]
structure_smiles_string = "CC(C)(C)n1nc(-c2cccc(OCc3ccccc3)c2)c2c(N)ncnc21"
target_under_test = "HUVEC with or without PBMC (3C, 4H, SAG and LPS systems)"
quantity_name = "Activity"
result = "+"

[[record]]
structure_smiles_string = "CC(C)(C)n1nc(Cc2ccc(Cl)cc2)c2c(N)ncnc21"
target_under_test = "HUVEC with or without PBMC (3C, 4H, SAG and LPS systems)"
quantity_name = "Activity"
result = "+"

[[record]]
structure_smiles_string = "Nc1ncnc2c1c(-c1ccccc1)nn2-c1ccccc1"
target_under_test = "HUVEC with or without PBMC (3C, 4H, SAG and LPS systems)"
quantity_name = "Activity"
result = "+"

[[record]]
structure_smiles_string = "Cc1ccc(Cc2nn(C(C)(C)C)c3ncnc(N)c23)cc1C"
target_under_test = "HUVEC with or without PBMC (3C, 4H, SAG and LPS systems)"
quantity_name = "Activity"
result = "+"


Provide HUVEC with or without PBMC (3C, 4H, SAG and LPS systems) Activity reading for `CC(C)(C)n1nc(-c2cccc(OCc3c(Cl)cccc3Cl)c2)c2c(N)ncnc21` . +

Provide HUVEC with or without PBMC (3C, 4H, SAG and LPS systems) Activity reading for `CC(C)(C)n1nc(Cc2cccc3ccccc23)c2c(N)ncnc21` . active

Values were extracted from patent US9512125B2.
